Biological target: human MC4R (Homo sapiens)
Construct: expressed in transfected cells; host or cells: HEK293/MC4R/CRE-GFP
Sequence (P32245 whole entry): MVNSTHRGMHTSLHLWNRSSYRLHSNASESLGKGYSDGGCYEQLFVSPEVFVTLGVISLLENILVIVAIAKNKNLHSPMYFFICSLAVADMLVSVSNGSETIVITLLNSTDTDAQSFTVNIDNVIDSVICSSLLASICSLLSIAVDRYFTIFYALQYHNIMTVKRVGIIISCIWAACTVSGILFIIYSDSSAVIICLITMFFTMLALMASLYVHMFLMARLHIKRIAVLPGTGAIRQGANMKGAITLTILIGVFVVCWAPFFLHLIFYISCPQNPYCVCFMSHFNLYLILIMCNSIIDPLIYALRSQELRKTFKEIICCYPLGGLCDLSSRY
Experiment: cAMP accumulation assay (HTRF), antagonist activity at MC4R
Type: cell-based
Conditions: HEK293, HEK293/MC4R/CRE-GFP; 0.1 nM to 1,000 nM; read-out: Max Activation %
Where a name gives a salt, the structure may show the parent alone. Positions of bridges follow the written chain, without caps; N, C: chain ends. Non-standard residues stand in square brackets, D forms with d. Residues, ends and D or L forms follow the SMILES beside them. d2Nal = N[C@H](Cc1ccc2ccccc2c1)C(=O)O; Hyp = O=C(O)[C@@H]1C[C@@H](O)CN1; Nle = CCCC[C@H](N)C(=O)O
Reported Emax values follow for various compounds
Your answer should be a plain number; it is taken to be in %.

>>> result("CCCC[C@H](NC(C)=O)C(=O)N[C@H]1CC(=O)NCCCC[C@@H](C(=O)N[C@@H](C(=O)N2CCC[C@@H]2C(N)=O)C(C)C)NC(=O)[C@@H]2CCCN2C(=O)[C@H](Cc2c[nH]c3ccccc23)NC(=O)[C@H](CCCNC(=N)N)NC(=O)[C@@H](Cc2ccc3ccccc3c2)NC(=O)[C@@H]2C[C@@H](O)CN2C1=O [Peptide D4] (Ac-[Nle]D[Hyp][d2Nal]RWPK[dV][dP]-NH2; lactam 2-8)")
21

stdin: Consider the compound shown here: CCCC[C@H](NC(C)=O)C(=O)N[C@H]1CC(=O)NCCCC[C@@H](C(=O)N2CCC[C@@H]2C(=O)N[C@@H](C(N)=O)C(C)C)NC(=O)[C@H](Cc2c[nH]c3ccccc23)NC(=O)[C@H](CCCNC(=N)N)NC(=O)[C@@H](Cc2ccc3ccccc3c2)NC(=O)[C@H](Cc2c[nH]cn2)NC(=O)[C@@H]2CCCN2C1=O [Peptide D5] (Ac-[Nle]DPH[d2Nal]RWK[dP][dV]-NH2; lactam 2-8) What is its recorded Emax?
stdout: 41.5

stdin: Again, but for CCCC[C@H](NC(C)=O)C(=O)N[C@H]1CC(=O)NCCCC[C@@H](C(=O)N[C@@H](C(=O)N2CCC[C@@H]2C(N)=O)C(C)C)NC(=O)[C@H](Cc2c[nH]c3ccccc23)NC(=O)[C@H](CCCNC(=N)N)NC(=O)[C@@H](Cc2ccc3ccccc3c2)NC(=O)[C@@H]2C[C@@H](O)CN2C1=O [Peptide D3] (Ac-[Nle]D[Hyp][d2Nal]RWK[dV][dP]-NH2; lactam 2-7)
stdout: 117

stdin: // same read-out, input: CCCC[C@H](NC(C)=O)C(=O)N[C@H]1CC(=O)NCCCC[C@@H](C(=O)N2CCC[C@@H]2C(=O)N[C@@H](C(N)=O)C(C)C)NC(=O)[C@H](Cc2c[nH]c3ccccc23)NC(=O)[C@H](CCCNC(=N)N)NC(=O)[C@@H](Cc2ccc3ccccc3c2)NC(=O)[C@@H]2CCCN2C1=O [TCMCB02] (Ac-[Nle]DP[d2Nal]RWK[dP][dV]-NH2; lactam 2-7)
stdout: 120

stdin: Param item: CCCC[C@H](NC(C)=O)C(=O)N[C@H]1CC(=O)NCCCC[C@@H](C(=O)N[C@@H](C(=O)N2CCC[C@@H]2C(N)=O)C(C)C)NC(=O)[C@H](Cc2c[nH]c3ccccc23)NC(=O)[C@H](CCCNC(=N)N)NC(=O)[C@@H](Cc2ccc3ccccc3c2)NC(=O)[C@H](Cc2c[nH]cn2)NC(=O)[C@@H]2CCCN2C1=O [Peptide D1] (Ac-[Nle]DPH[d2Nal]RWK[dV][dP]-NH2; lactam 2-8)
stdout: 49.4

stdin: For CCCC[C@H](NC(C)=O)C(=O)N[C@H]1CC(=O)NCCCC[C@@H](C(=O)N[C@@H](C(=O)N2CCC[C@@H]2C(N)=O)C(C)C)NC(=O)[C@H](Cc2c[nH]c3ccccc23)NC(=O)[C@H](CCCN=C(N)N)NC(=O)[C@@H](Cc2ccc3ccccc3c2)NC(=O)[C@@H]2CCCN2C1=O [TCMCB07] (Ac-[Nle]DP[d2Nal]RWK[dV][dP]-NH2; lactam 2-7) then?
stdout: 118

stdin: Record: CCCC[C@@H]1NC(=O)[C@@H](NC(C)=O)CSSC[C@@H](C(N)=O)NC(=O)CNC(=O)[C@H](Cc2c[nH]c3ccccc23)NC(=O)[C@H](CCCNC(=N)N)NC(=O)[C@@H](Cc2ccc3ccccc3c2)NC(=O)[C@H](Cc2c[nH]cn2)NC(=O)[C@H](CCCNC(=N)N)NC1=O [HS024(TFA), reference compound] (Ac-C[Nle]RH[d2Nal]RWGC-NH2; disulfide 1-9 (inferred); N-terminus and C-terminus assumed)
stdout: 104
